So I've got a bunch of molecules here, and I need their z-score values.
testProtocol: compound effects on differentiated 3T3-L1 adipocyte viability – cell-based, 3T3-L1 adipocytes, calcein-AM fluorescence, 48 h, basal, profiling panel (AID 1163); note: test concentration not given here
conditionSummary: 3T3-L1 adipocytes viability, higher = more signal
Numbers only.

A selection of reference data follows.
# molecule, measuredResult
records = [
    ("CN1C(=O)C2C(C1=O)C1C=C(c3ccc(CO)cc3)C2C(C2CC2)N1Cc1cc2c(cc1Br)OCO2 (centres undefined)", 0.575),
    ("CO[C@H]1O[C@H](CO)[C@@H](OC(=O)Nc2ccc(C(F)(F)F)cc2)[C@H](OC(=O)Nc2ccccc2)[C@@H]1OC(=O)Nc1ccccc1", -0.133),
    ("CC(c1ccccc1)C(O)C1C=CC2C(=O)N(c3ccccc3)C(=O)C2N1Nc1ccccc1F (centres undefined)", -0.146),
]

Quick one: z-score of C=C[C@H](C)[C@H](O)c1ccc(OCCO)cc1 ?
0.557

* * *

testProtocol: probe aShh binding to arrayed compounds – biochemical, biotinylated probe, 635/667 nm fluorescence, primary screen (AID 1114);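 note: probe is biotin-labelled aShh protein from a stem cell growth factor screen; measures binding of labelled protein to compounds printed on the slide; score merges feature fluorescence at 667 nm with signal-to-noise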
conditionSummary: small-molecule microarray, higher = more signal
Lab note: anything with composite z-score at or over 0.03 counts as TRUE; the rest go in FALSE.

Here are 5 compounds together with their reported answers.
# compound, assignedClass
measured = [
    ("CN(C)CCCN1C(=O)[C@@]2(c3ccc([N+](=O)[O-])cc3)CC(=O)N(C3CCCCC3)[C@@H]2c2ccc(CO)cc21", "FALSE"),
    ("C=CCN1C(=O)[C@@]2(O[C@@H](CCO)[C@H]([Si](C)(C)c3ccc(OC)cc3)[C@H]2C)c2cc(NC(C)=O)ccc21", "FALSE"),
    ("COCCOC(=O)N1C(=O)[C@@]2(c3ccccc31)[C@H](C(=O)N1CCCCCCC1)[C@H]1C(=O)O[C@H](c3ccccc3)[C@H](c3ccccc3)N1[C@@H]2c1ccccc1OCCO", "TRUE"),
    ("CC(C)OC(=O)C1=CCC(c2cccc(Cl)c2)O1 (configuration not stated)", "TRUE"),
    ("C=CCC(OC(C)=O)[C@@H]1[C@@H](N(Cc2cc3ccccc3o2)C(=O)c2ccc(C)cc2)c2cc(OCCCO)ccc2N1C(=O)c1ccc(-c2ccccc2)cc1 (some centres not stated)", "FALSE"),
]

Reported composite z-score reaches at least 0.03 for CC1CC/C=C\[C@H]2OC34C=CCN(Cn5nnc6ccccc65)C(=O)[C@H]3N(CCCO)C(=O)[C@@H]4C2C(=O)O1 (some centres not stated) ?
FALSE

Reported composite z-score reaches at least 0.03 for C[n+]1ccc2ccc(O)cc2c1 ?
FALSE

Reported composite z-score reaches at least 0.03 for C=C[C@H](OC)[C@@H](OC(=O)Nc1ccc(SC)cc1)c1ccc(OCCO)cc1 ?
FALSE

Reported composite z-score reaches at least 0.03 for CC(C)C(CO)N1C(=O)[C@@H]2[C@H]3C(=O)OCC=C[C@H]3OC23C=CCN(c2ccc4ccccc4c2)C(=O)[C@@H]13 (some centres not stated) ?
FALSE

Reported composite z-score reaches at least 0.03 for Cc1ccc(N2C(=O)c3ccccc3[C@](C)(C(=O)NCCN3CCOCC3)[C@@H]2c2ccc(CO)cc2)nc1 ?
TRUE

Reported composite z-score reaches at least 0.03 for O=C1C2C=CC(C(O)c3cccc4ccccc34)N(n3cnnc3)C2C(=O)N1Cc1ccccc1 (configuration not stated) ?
FALSE

Reported composite z-score reaches at least 0.03 for O=c1cccc(-c2ccccc2)o1 ?
FALSE

* * *

testProtocol: resazurin metabolic signal in A549 cells – cell-based, resazurin fluorescence, 24 h, PK04 Diversity Set, profiling panel (AID 1171); note: test concentration not given here
conditionSummary: A549 viability, higher = more signal, called active from +8 up or from −8 down
Returns the class for an entry based on its z-score. Class ranges: 1: < -0.8; 2: ≥ -0.8 and < -0.06; 3: ≥ -0.06

Here are 5 compounds together with their reported answers.
# compound, assignedClass
rows = [
    ("COc1ccccc1CN1C(=O)c2ccccc2[C@](Cc2ccccc2I)(C(=O)NCc2ccccc2)[C@@H]1c1ccc(CO)cc1", 2),
    ("Cc1ccc(S[C@]2(C(=O)NCc3ccccc3)CC(=O)N(Cc3cc(C(F)(F)F)cc(C(F)(F)F)c3)[C@@H]2c2ccc(CO)cc2)cc1", 3),
    ("C=CCC(OC(C)=O)[C@@H]1[C@@H](N(Cc2ccc(-c3ccccc3)cc2)C(=O)c2ccc(C)cc2)c2cc(OCCCO)ccc2N1C(=O)c1ccc2ccccc2n1 (some centres undefined)", 3),
    ("COCCOC(=O)N1C(=O)[C@@]2(c3cc(C#CCCO)ccc31)[C@H](c1ccc(O)cc1)N1[C@H](c3ccccc3)[C@H](c3ccccc3)OC(=O)[C@H]1[C@@H]2C(=O)N1CCCCCCC1", 2),
    ("CCOC(=O)C1=CC[C@@H](c2ccccc2)N(S(=O)(=O)c2ccc(C)cc2)[C@H]1c1ccc(C#N)cc1", 3),
]

Which bin should I file Cc1cc(C)c(C(O)C2C=CC3C(=O)NC(=O)C3N2Nc2ccccn2)c(C)c1 (centres undefined) under?
1

Which bin should I file C#C[C@H](O[Si](C#CCCCCCC)(C(C)C)C(C)C)c1ccccc1 under?
3

Which bin should I file COCCOC(=O)N1C(=O)[C@@]2(c3ccccc31)[C@H](C(=O)N1CCCCCCC1)[C@H]1C(=O)O[C@H](c3ccccc3)[C@H](c3ccccc3)N1[C@@H]2c1ccccc1OCCO under?
2

Which bin should I file C=CCN1C(=O)[C@]2(Cc3ccccc31)N=C(c1ccc(OCCCO)cc1)O[C@@H]2c1ccccc1 under?
1

Which bin should I file Cc1cccc(/C=C/C=O)c1 under?
3

Which bin should I file O=C1C2C=CC(C(O)c3ccc(-c4ccccc4)s3)N(Nc3ccccc3F)C2C(=O)N1c1ccccc1 (centres undefined) under?
1

Which bin should I file C=CC[C@@]1(C(=O)NCc2ccccc2)N=C(c2ccc(OCCCO)cc2)O[C@@H]1c1ccccc1CN=[N+]=[N-] under?
1

* * *

testProtocol: probe aXIP binding to arrayed compounds – biochemical, NeuroSMM set, 635/667 nm fluorescence, primary screen (AID 1119);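 note: probe is the protein aXip251-270 applied at 1 µg/mL to compound-printed slides; binding of probe to printed compounds measured as 667 nm fluorescence plus signal to noise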
conditionSummary: small-molecule microarray, higher = more signal, called active from +8 up or from −8 down
So I've got a bunch of molecules here, and I need their composite Z-score values.
One number for each entry.

# molecule, composite Z-score
rows = [
    ("[N-]=[N+]=NCc1ccccc1C[C@@]1(C(=O)NCc2ccccc2)N=C(c2ccc(OCCCO)cc2)O[C@@H]1c1ccccc1CN=[N+]=[N-]", 0.936),
]

Hey, quick one: what's composite Z-score for each of these?
1. COc1cc(NN2C(C(O)c3ccccc3)C=CC3C(=O)N(c4ccccc4)C(=O)C32)cc(OC)c1OC (configuration not stated)
2. [N-]=[N+]=Nc1ccccc1[C@@H]1OC(c2ccc(OCCCO)cc2)=N[C@]1(CCS(=O)(=O)c1ccccc1)C(=O)O
3. [N-]=[N+]=NCc1ccccc1[C@@H]1OC(c2ccc(OCCCO)cc2)=N[C@]1(Cc1ccccc1N=[N+]=[N-])C(N)=O
4. CN1C(=O)C2C=CC(C(O)C(c3ccccc3)c3ccccc3)N(Nc3ccccc3)C2C1=O (configuration not stated)
5. CC1CC/C=C\[C@H]2OC34C=CCN(Cn5nnc6ccccc65)C(=O)[C@H]3N(CCCO)C(=O)[C@@H]4C2C(=O)O1 (some centres not stated)

0.153
0.834
0.0773
0.462
0.372

Hey, quick one: what's composite Z-score for each of these?
1. C=C(COC)C(=O)CC[C@H](OC(=O)c1cccnc1)c1ccccc1OCCO
2. CC(C)(C)OC(=O)CC[C@]1(C(=O)NCC(O)CO)N=C(c2ccc(OCCCO)cc2)O[C@H]1c1ccccc1CN=[N+]=[N-] (some centres not stated)

0.708
1.27

Hey, quick one: what's composite Z-score for each of these?
1. O=C(NCC(F)(F)F)[C@@H]1c2ccccc2C(=O)N(Cc2ccccc2)[C@H]1c1ccc(CO)cc1
2. Cc1ccc(N2C(=O)c3ccccc3[C@](C)(C(=O)NCCN3CCOCC3)[C@@H]2c2ccc(CO)cc2)nc1
3. CC(C)OC(=O)C1=CCC(c2cccc(Cl)c2)O1 (configuration not stated)

[0.111, -0.559, 0.403]

Hey, quick one: what's composite Z-score for each of these?
1. CC1CC/C=C\[C@H]2OC34C=CCN(c5ccc6ccccc6c5)C(=O)[C@H]3N(CCCCCO)C(=O)[C@@H]4C2C(=O)O1 (some centres not stated)
2. C=CCN1C(=O)[C@]2(Cc3ccccc31)N=C(c1ccc(OCCCO)cc1)O[C@@H]2c1ccccc1
3. C[N+](C)(C)CCCC[C@@H]1NC(=O)[C@H]2C[C@@H](C(=O)O)[C@@H](c3cccc(OCCO)c3)N2C1=O

1: 0.322; 2: 2.13; 3: 3.73

Hey, quick one: what's composite Z-score for each of these?
1. COc1ccccc1CN1C(=O)c2ccccc2[C@](Cc2ccccc2I)(C(=O)NC2CC2)[C@@H]1c1ccc(CO)cc1
2. [N-]=[N+]=NCc1ccccc1[C@@H]1OC(c2ccc(OCCCO)cc2)=N[C@]1(Cc1ccccc1)C(=O)O
3. O=C1OCC=C[C@H]2OC34C=CCN(c5ccc(Cl)cc5)C(=O)[C@H]3N(CCCO)C(=O)[C@@H]4[C@@H]12 (some centres not stated)
4. CC(C)C(=C=CC[C@H](O)c1ccccc1OCCO)CCO
5. COc1ccc(C#Cc2ccc3c(c2)[C@]2(C(=O)N3)[C@H](C(=O)N3CCN(c4ncccn4)CC3)[C@H]3C(=O)O[C@H](c4ccccc4)[C@H](c4ccccc4)N3[C@@H]2c2ccc(O)cc2)cc1

1. 0.0161
2. 1.38
3. -0.265
4. -0.172
5. 0.345

Hey, quick one: what's composite Z-score for each of these?
1. [N-]=[N+]=NCc1ccccc1C[C@]1(C(=O)NCC(O)CO)COC(c2ccc(OCCCO)cc2)=N1 (some centres not stated)
2. [N-]=[N+]=NCc1ccccc1C[C@]1(C(N)=O)N=C(c2ccc(OCCCO)cc2)O[C@H]1c1ccccc1N=[N+]=[N-]
3. CCCC[C@@H]1C[C@H]1[C@@H](NC(=O)c1ccco1)c1ccccc1
4. Cc1ccc(F)cc1S(=O)(=O)N[C@@H]1CCN(Cc2ccc(C(F)(F)F)cc2)C1
5. CCCC[C@@H]1C[C@H]1[C@@H](NC(=O)c1ccccc1)c1ccc(-c2ccccc2)cc1
6. [N-]=[N+]=Nc1ccccc1C[C@]1(C(=O)N2CCCCC2)N=C(c2ccc(OCCCO)cc2)O[C@H]1c1ccccc1N=[N+]=[N-]

1: 0.621; 2: -0.338; 3: -0.264; 4: 0.512; 5: -0.0708; 6: 0.121

Hey, quick one: what's composite Z-score for each of these?
1. COc1ccc([Si](C)(C)[C@H]2[C@H](CCO)O[C@@]3(C(=O)N(Cc4ccccc4)c4ccc(N5C(=O)COc6ccccc65)cc43)[C@@H]2C)cc1
2. OCCCc1cc[n+](Cc2cccc(OC(F)(F)F)c2)cc1
3. Cc1ccc(N2C(=O)c3ccccc3[C@@H](C(=O)NC(C)C)[C@@H]2c2ccc(CO)cc2)nc1

1. 0.412
2. 0.755
3. -0.0969

Hey, quick one: what's composite Z-score for each of these?
1. Cc1ccc(S[C@]2(C(=O)NCc3ccccc3)CC(=O)N(Cc3cc(C(F)(F)F)cc(C(F)(F)F)c3)[C@@H]2c2ccc(CO)cc2)cc1
2. O=C1[C@H]2C=C(Br)[C@H](C[C@@H]2OCCOCCO)[C@@]12CO2
3. CC(C)C(O)C1C=CC2C(=O)N(C)C(=O)C2N1N1CCCCC1 (configuration not stated)
4. CCN(CC)c1ccc(N2CC=CC34O[C@@H]5C=CCOC(=O)[C@@H]5[C@H]3C(=O)N(CCCCCO)[C@@H]4C2=O)cc1 (some centres not stated)

1. 0.3
2. -0.0482
3. 0.875
4. 1.21
